# EXPERIMENT NOTES: COS7 lysate on small-molecule microarray, probe aHis, 635 nm (AID 1123);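 further: z-score combines 667nm fluorescence intensity with signal-to-noise per printed compound spot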
# RUN PARAMETERS: COS7 cell lysate, fluorescence, higher = more signal
Quick rule for you: composite z-score at 0.2 or higher means true (1), lower means false (0).

[
  {
    "MOLECULE": "C#CCCCON=C1C[C@@H](O)[C@@H](O)[C@@H]2[C@@H]3C(=O)N(C4CCCCC4)C(=O)[C@@H]3CC[C@H]12",
    "LABEL CLASS": "false (0)"
  },
  {
    "MOLECULE": "Cc1cc2c(nc1C)CCCN2CC(C)ON=C[C@@H](C)[C@H](OCc1ccccc1)C(C)C (some centres not stated)",
    "LABEL CLASS": "false (0)"
  },
  {
    "MOLECULE": "O=C1[C@H]2[C@H]3[C@H](O)[C@H](O)CC(=NOCc4ccccc4)[C@H]3CC[C@H]2C(=O)N1Cc1ccccc1",
    "LABEL CLASS": "true (1)"
  },
  {
    "MOLECULE": "C=C(C)C(=O)OC[C@@H]1CN2[C@@H](CC[C@@H](C)[C@@H]2c2ccc(Br)cc2)C(=O)O1",
    "LABEL CLASS": "true (1)"
  },
  {
    "MOLECULE": "CC(C)C(=O)N[C@@H]1CCCN1C(=O)C=Cc1ccccc1",
    "LABEL CLASS": "true (1)"
  },
  {
    "MOLECULE": "CCOC(=O)[C@H](CC(C)C)NC(=O)CCC1CC(OC(=O)NCc2cccc3ccccc23)CC2(CCCC(COC(=O)NCc3ccccc3)O2)O1 (some centres not stated)",
    "LABEL CLASS": "false (0)"
  }
]

Note: attention shifts to another entry.
## Input API: above_or_equal(metric=composite z-score, cutoff=0.2) for item CO[C@@H]1COC(=O)CC=C[C@H](C)COC(=O)[C@H](C)NC(=O)CC=C[C@H]1C
## Output false (0)

----------
# System: PRMT1 (protein arginine N-methyltransferase 1)
# EXPERIMENT NOTES: PRMT1 binders on small-molecule microarrays, primary screen, biochemical, small-molecule microarray, 635 nm fluorescence (AID 1088);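 further: binding of Prmt1 protein to compounds spotted on small-molecule microarray slides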
# RUN PARAMETERS: small-molecule microarray binding, higher = more signal
Please go through the items and note down their composite z-score.
Answers are plain numbers.

Some molecules with known composite z-score results, for comparison:
[
  {
    "QUERY SMILES": "O=C1[C@H]2[C@H]3[C@H](O)[C@H](O)CC(=NOCc4ccccc4)[C@H]3CC[C@H]2C(=O)N1Cc1ccccc1",
    "TARGET DESC": "PRMT1 (protein arginine N-methyltransferase 1)",
    "composite z-score": -1
  },
  {
    "QUERY SMILES": "CCN1C(=O)[C@H]2[C@H]3[C@H](O)[C@H](O)CC(=NOC)[C@@H]3CC[C@H]2C1=O",
    "TARGET DESC": "PRMT1 (protein arginine N-methyltransferase 1)",
    "composite z-score": -1.1
  },
  {
    "QUERY SMILES": "O=C(NN=C1C[C@@H](O)[C@@H](O)[C@@H]2[C@@H]3C(=O)N(Cc4ccc5c(c4)OCO5)C(=O)[C@@H]3CC[C@H]12)OCc1ccccc1",
    "TARGET DESC": "PRMT1 (protein arginine N-methyltransferase 1)",
    "composite z-score": 1.15
  }
]

Now look at this entry.
## Input What measured composite z-score goes with C[C@@H]1CC[C@@H](C(=O)O)N[C@H]1c1ccc(-c2ccco2)cc1 ?
## Output 1.06
